Molecular target: ATAD2A (Homo sapiens, UniProt Q6PL18)
Sequence (Q6PL18 980-1092 limits assumed): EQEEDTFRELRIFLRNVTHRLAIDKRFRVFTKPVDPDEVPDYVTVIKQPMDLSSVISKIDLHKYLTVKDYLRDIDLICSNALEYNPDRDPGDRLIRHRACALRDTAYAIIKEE
Assay: BROMOscan ligand-binding assay
Conditions: ATAD2A
experimental-endpoint: Kd

1) COc1cc(C#N)ccc1S(=O)(=O)Nc1ccc2c(c1)cc(C)c(=O)n2C [NI 57] | > 50 µM
2) Cc1cc(=O)n(C)c2cc(N3C(=O)CC[C@H](NS(=O)(=O)CC(C)C)[C@H]3c3ccc(Cl)cc3)ccc12 [LP-99] | > 50 µM
3) COc1cc2c(cc1NS(=O)(=O)c1ccc(Br)cc1C)n(C)c(=O)n2C [OF-1] | > 50 µM

----------
target: WDR9(2) (Homo sapiens); assay: BROMOscan ligand-binding assay; conditions: WDR9(2)
Sequence (Q9NSI6 1313-1418 limits assumed): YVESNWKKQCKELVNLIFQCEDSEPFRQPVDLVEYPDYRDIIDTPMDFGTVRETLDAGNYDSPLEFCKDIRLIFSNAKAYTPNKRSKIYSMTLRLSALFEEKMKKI
experimental-endpoint: Kd

1) COc1cc(C#N)ccc1S(=O)(=O)Nc1ccc2c(c1)cc(C)c(=O)n2C [NI 57] | > 50 µM
2) COc1cc2c(cc1NS(=O)(=O)c1ccc(Br)cc1C)n(C)c(=O)n2C [OF-1] | > 50 µM

----------
molecular target: SUV420H1 (Homo sapiens); construct: purchased DiscoverX BROMOscan (bromodomains); SGC in-house methyltransferase panel; test: Methyl transferase scintillation proximity assay; format: biochemical; conditions: average of two measurements, read-out: MTases Inhibition (%)
Sequence (Q4FZB7 whole entry): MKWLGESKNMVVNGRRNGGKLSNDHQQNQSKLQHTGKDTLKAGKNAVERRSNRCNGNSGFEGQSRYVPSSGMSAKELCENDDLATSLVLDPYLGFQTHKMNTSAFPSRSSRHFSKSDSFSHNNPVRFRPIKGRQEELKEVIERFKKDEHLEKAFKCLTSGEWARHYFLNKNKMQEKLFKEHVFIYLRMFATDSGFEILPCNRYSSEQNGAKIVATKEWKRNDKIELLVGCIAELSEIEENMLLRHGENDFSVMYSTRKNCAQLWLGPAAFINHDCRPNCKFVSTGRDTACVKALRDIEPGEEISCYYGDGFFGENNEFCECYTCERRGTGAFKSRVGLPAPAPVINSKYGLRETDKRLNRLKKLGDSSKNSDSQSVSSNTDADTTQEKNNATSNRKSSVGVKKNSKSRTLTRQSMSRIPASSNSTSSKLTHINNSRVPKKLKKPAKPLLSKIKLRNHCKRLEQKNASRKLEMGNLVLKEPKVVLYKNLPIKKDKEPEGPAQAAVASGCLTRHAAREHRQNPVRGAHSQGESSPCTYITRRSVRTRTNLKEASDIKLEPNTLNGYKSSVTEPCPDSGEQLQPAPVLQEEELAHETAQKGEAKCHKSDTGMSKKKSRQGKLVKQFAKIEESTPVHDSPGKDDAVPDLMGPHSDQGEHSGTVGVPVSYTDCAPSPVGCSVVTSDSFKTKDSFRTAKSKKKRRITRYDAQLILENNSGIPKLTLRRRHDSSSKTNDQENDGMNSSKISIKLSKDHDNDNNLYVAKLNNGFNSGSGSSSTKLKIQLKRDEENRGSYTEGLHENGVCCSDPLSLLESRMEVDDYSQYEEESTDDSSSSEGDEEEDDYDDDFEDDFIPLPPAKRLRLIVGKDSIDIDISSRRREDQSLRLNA
experimental-endpoint: inhibition at 10 µM (%)

1. Cc1c(NC(=O)c2cc(C(N)=O)nc3cc(F)ccc23)c(C(F)(F)F)nn1Cc1ccc(C#N)cc1 [BAY-876] | -1
2. COc1cc(Cl)c(C(=O)N[C@@H](CN[C@H]2CC[C@@H](N)CC2)Cc2ccc(C#N)cc2)cc1-c1ccc(CN[C@H](C)c2ccc(C)cc2)o1 [BAY-850] | 5
3. Cc1nnc2c3ccccc3c(N[C@@H](C)[C@H](c3ccccc3)N(C)C)nn12 [L-Moses] | 4
4. CN1C[C@H](Nc2cnn(C)c(=O)c2Br)C[C@H](c2ccccc2)C1 [GSK4027] | 8
5. CN(C)CCCOc1ccc(-c2cc(NCCCn3cccn3)nc(S(C)(=O)=O)n2)cc1 [TP-238] | 3
6. CO[C@H]1CNC[C@@H](OCC2CCC(F)(F)CC2)[C@@H]1Nc1ncc(-c2cncc(C)c2)c2cc(C)c(=O)[nH]c12 [GSK8814] | -3
7. Cc1c(NC(=O)c2cc(C(N)=O)nc3cc(F)ccc23)c(C(F)(F)F)nn1Cc1ccc(C(C)(C)C)cc1 [BAY-588] | -5

----------
# Kd listing for each entry below
target: FALZ (Homo sapiens, UniProt Q12830); experiment: BROMOscan ligand-binding assay; details: BROMOscan Gene Symbol FALZ
experimental-endpoint: Kd

1) Cc1noc(C)c1-c1ccc2c(c1)nc(CCc1ccccc1)n2CCN1CCOCC1 | > 50 µM
2) COc1ccc(CCc2nc3cc(-c4c(C)noc4C)ccc3n2CCN2CCOCC2)cc1 | > 50 µM

----------
molecular target: BRD8(2) (Homo sapiens); test: BROMOscan ligand-binding assay
Sequence (Q9H0E9 1099-1207 limits assumed): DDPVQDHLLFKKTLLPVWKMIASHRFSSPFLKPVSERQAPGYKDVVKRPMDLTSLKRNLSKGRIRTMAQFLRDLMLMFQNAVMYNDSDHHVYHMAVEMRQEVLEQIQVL
pKd: −log10 of the molar value.
experimental-endpoint: pKd

1) CCCS(=O)(=O)c1nc(NC2CC2)cc(-c2ccc3c(ccn3C3CC(C)(C)NC(C)(C)C3)c2)n1 | < 4.52
